# System: PC3 (human prostate cancer cell line)
# experimental.details: MTT cell viability assay, PC3 cells
# Assay type: cell-based
# conditions: Homo sapiens, PC-3, isolated compounds, 0 to 200 µM, 48 h, mean ± SEM (n = 3), read-out: IC50 (50% cell growth inhibition) PC-3

molecule: CC(=O)O[C@H]1CC[C@]2(C)[C@H]3CC[C@]4(C)C(=CC[C@@]5(C(=O)O)CCC(C)(C)C[C@H]54)[C@]3(C)CC[C@H]2C1(C)C [Compound 9, acetyl-aleuritolic acid]
unit: µM
relation.qualifier: =
IC50: 172
//
molecule: COc1cccc2c1C(=O)c1c(O)c3c(c(O)c1C2=O)C[C@@](O)(C(=O)CO)C[C@@H]3O[C@H]1C[C@H](N)[C@H](O)[C@H](C)O1 [Doxorubicin, reference compound]
unit: µM
relation.qualifier: =
IC50: 16.4
//
molecule: COc1cc(C=O)ccc1O [Compound 8, vanillin]
unit: µM
relation.qualifier: >
IC50: 200
//
molecule: C=C(C)[C@@H]1CC[C@]2(C)CC[C@]3(C)[C@H](CC[C@@H]4[C@@]5(C)CC[C@H](O)C(C)(C)[C@@H]5CC[C@]43C)[C@@H]12 [Compound 10, lupeol]
unit: µM
relation.qualifier: =
IC50: 136
//
molecule: COC(=O)C1=CC(=O)C=C2C1(C(=O)OC)CCC(C)C21CC(c2ccoc2)OC1=O (stereo not drawn) [Compound 1, megalocarpoidolide D]
unit: µM
relation.qualifier: >
IC50: 200
//
molecule: COC(=O)C1=CCCC2C1(C(=O)OC)CCC(C)C21CC(c2ccoc2)OC1=O (stereo not drawn) [Compound 5, 12-epi-crotocorylifuran]
unit: µM
relation.qualifier: >
IC50: 200

This collection of values is drawn from paper PMC6017299.
